The reported numbers originate from patent US20220363665A1.

Would you mind telling me the reported IC50 of each entry?
# MEASURED ON: UniProt:Q9NR97
# Sequence (Q9NR97 27-1041): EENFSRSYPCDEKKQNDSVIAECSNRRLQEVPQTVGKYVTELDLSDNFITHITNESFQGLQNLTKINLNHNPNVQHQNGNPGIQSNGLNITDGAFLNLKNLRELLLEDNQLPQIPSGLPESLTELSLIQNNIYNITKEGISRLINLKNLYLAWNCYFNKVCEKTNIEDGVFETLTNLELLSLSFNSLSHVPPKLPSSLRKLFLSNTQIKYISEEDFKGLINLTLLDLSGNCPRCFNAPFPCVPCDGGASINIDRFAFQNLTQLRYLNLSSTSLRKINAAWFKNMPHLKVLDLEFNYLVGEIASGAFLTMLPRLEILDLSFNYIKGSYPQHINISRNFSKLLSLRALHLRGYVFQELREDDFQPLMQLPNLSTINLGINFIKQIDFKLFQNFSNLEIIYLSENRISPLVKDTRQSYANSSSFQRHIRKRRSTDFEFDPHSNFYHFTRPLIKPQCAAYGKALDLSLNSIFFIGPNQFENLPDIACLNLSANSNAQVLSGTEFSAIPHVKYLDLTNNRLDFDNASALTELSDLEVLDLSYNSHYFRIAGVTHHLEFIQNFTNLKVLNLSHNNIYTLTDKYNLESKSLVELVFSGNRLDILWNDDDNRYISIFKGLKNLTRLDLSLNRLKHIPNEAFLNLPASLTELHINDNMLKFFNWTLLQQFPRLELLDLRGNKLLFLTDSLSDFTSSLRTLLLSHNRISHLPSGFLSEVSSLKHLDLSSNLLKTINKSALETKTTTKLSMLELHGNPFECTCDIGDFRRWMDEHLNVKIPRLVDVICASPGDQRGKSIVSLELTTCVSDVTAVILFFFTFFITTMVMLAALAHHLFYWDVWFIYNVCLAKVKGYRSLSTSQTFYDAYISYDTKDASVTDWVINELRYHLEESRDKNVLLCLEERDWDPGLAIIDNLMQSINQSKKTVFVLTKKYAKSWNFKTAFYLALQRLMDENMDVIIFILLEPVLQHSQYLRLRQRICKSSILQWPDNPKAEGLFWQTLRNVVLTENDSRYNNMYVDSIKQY
# ASSAY SUMMARY: HEK293-Blue-hTLR-8 cells assay (SEAP reporter, R848 stimulation)
# CONDITION SET: HEK293-Blue-hTLR8 cells, R848, 20 hrs
Quick reminder: number only, in nM, skip the unit.

Request: Which IC50 is listed for C[C@@H]1CN(c2ccc(C(F)(F)F)c3ncccc23)C[C@H](C(=O)NC2CNCC(F)(F)C2)O1 (stereo partly shown) ?
Result: 86

Request: Which IC50 is listed for C[C@@H]1CN(c2ccc(C(F)(F)F)c3ncccc23)C[C@H](C(=O)N2CCC3(CCNC3)C2)O1 (stereo partly shown) ?
Result: 25

Request: Which IC50 is listed for C[C@@H]1CN(c2ccc(C(F)(F)F)c3ncccc23)C[C@H](C(=O)NCC(C)(C)N)O1 ?
Result: 26

* * *

Would you mind telling me the reported pIC50 of each entry?
# MEASURED ON: human TLR7 (Homo sapiens)
# Sequence (Q9NYK1 27-1049): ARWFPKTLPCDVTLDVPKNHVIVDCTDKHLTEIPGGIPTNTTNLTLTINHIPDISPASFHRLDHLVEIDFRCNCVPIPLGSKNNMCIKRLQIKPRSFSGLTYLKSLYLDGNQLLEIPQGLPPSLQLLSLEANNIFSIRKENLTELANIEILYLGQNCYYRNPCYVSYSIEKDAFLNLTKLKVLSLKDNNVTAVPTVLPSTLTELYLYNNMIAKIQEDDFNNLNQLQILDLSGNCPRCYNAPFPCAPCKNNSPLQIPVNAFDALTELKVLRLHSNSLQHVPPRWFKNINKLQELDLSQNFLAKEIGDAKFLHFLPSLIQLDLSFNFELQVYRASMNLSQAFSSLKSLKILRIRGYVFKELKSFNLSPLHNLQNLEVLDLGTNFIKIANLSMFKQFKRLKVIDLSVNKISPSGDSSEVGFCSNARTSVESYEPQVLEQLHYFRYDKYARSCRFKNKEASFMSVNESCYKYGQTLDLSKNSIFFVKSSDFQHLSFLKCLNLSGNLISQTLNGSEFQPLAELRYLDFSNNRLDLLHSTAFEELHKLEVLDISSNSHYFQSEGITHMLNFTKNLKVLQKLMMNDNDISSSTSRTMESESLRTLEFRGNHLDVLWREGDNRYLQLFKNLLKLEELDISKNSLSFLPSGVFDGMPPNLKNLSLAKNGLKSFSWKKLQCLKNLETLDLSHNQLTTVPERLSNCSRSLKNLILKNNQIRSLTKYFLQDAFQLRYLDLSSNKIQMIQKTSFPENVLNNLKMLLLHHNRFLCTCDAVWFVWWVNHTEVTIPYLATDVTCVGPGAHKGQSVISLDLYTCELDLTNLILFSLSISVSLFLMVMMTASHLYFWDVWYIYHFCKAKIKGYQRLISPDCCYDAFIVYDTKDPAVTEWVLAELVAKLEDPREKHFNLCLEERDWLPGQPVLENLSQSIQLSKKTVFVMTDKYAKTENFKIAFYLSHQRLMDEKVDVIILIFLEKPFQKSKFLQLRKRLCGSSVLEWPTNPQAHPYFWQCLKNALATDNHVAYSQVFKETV
# ASSAY SUMMARY: HEK293-Blue-hTLR-7 cells assay (SEAP reporter, R848 stimulation)
# CONDITION SET: HEK293-Blue-hTLR7 cells, R848, 20 hrs
Please treat pIC50 as minus the base-10 logarithm of the molar concentration.

Request: Which pIC50 is listed for C[C@@H]1CN(c2ccc([N+](=O)[O-])c3ncccc23)C[C@H](C(=O)NCC2CN(C)CCO2)O1 (some centres unmarked) [Example 18] ?
Result: 8.30

Request: Which pIC50 is listed for C[C@@H]1CN(c2ccc(C(F)(F)F)c3ncccc23)C[C@H](C(=O)NC2CNC[C@@H]2F)O1 (some centres unmarked) [Example 2] ?
Result: 7.28

Request: Which pIC50 is listed for C#Cc1ccc(N2C[C@@H](C)O[C@@H](C(=O)NC3CCN(C)CC3)C2)c2cccnc12 [Example 43] ?
Result: 8.00

Request: Which pIC50 is listed for C[C@@H]1CN(c2ccc(C(F)(F)F)c3ncccc23)C[C@H](C(=O)NC2C[C@H]3C[C@@H]2CN3)O1 (some centres unmarked) [Example 44] ?
Result: 7.74

Request: Which pIC50 is listed for Cc1ccc(N2C[C@@H](C)C[C@@H](N)C2)c2cccnc12 [Example 15] ?
Result: 7.52

Request: Which pIC50 is listed for C[C@@H]1CN(c2ccc(C(F)(F)F)c3ncccc23)C[C@H](C(=O)NCCN2CCOCC2)O1 [Example 13] ?
Result: 6.54

Request: Which pIC50 is listed for C[C@@H]1CN(c2ccc(C(F)(F)F)c3ncccc23)C[C@H](C(=O)N[C@@H]2CNC[C@@H]2F)O1 (single isomer, unassigned) [Example 2A] ?
Result: 7.39

Request: Which pIC50 is listed for C[C@@H]1CN(c2ccc(C(F)(F)F)c3ncccc23)C[C@H](C(=O)N2CCC3(CCNC3)C2)O1 (some centres unmarked) [Example 36] ?
Result: 6.89

* * *

Would you mind telling me the reported inhibition at 10 min, 10 µM of each entry?
# MEASURED ON: CYP2D6 (Homo sapiens, UniProt P10635)
# Construct: tissue BD-Gentest 452117; host or cells: human liver microsomes
# Sequence (P10635 whole entry): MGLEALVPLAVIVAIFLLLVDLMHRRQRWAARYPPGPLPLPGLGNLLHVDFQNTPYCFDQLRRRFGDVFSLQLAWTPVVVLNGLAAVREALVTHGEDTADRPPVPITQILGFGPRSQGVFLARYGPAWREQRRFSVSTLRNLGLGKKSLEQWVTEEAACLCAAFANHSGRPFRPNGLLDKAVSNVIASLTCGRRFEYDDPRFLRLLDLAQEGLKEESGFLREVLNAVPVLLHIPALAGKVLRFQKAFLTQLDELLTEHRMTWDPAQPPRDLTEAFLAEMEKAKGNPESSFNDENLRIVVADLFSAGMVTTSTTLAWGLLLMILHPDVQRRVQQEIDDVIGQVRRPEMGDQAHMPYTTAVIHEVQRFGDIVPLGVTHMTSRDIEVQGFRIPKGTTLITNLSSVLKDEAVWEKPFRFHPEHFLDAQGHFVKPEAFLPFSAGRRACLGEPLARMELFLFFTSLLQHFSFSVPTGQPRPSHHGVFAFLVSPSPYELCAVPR
# ASSAY SUMMARY: CYP inhibition assay in human liver microsome, CYP2D6
# Type: in vitro ADME
# CONDITION SET: human, liver microsomes, probe dextromethorphan, HLM, dextromethorphan substrate, read-out: CYP inhibition % @10 uM (2D6)
Please make sure the unit comes right after the number.

Request: Which inhibition at 10 min, 10 µM is listed for C[C@@H]1CN(c2ccc(Cl)c3ncccc23)C[C@H](C(=O)NCC2CN(C)CCO2)O1 (stereo partly drawn) [Example 26] ?
Result: 3%

Request: Which inhibition at 10 min, 10 µM is listed for C[C@H]1C[C@@H](N)CN(c2ccc(Cl)c3ncccc23)C1 [Example 23] ?
Result: 35%

Request: Which inhibition at 10 min, 10 µM is listed for C[C@@H]1CN(c2ccc(C(F)(F)F)c3ncccc23)C[C@H](C(=O)NCC(C)(C)N)O1 [Example 6] ?
Result: 13%

Request: Which inhibition at 10 min, 10 µM is listed for C[C@@H]1CN(c2ccc(C(F)(F)F)c3ncccc23)C[C@H](C(=O)N2CCC3(CCNCC3)CC2)O1 [Example 32] ?
Result: -22%

Request: Which inhibition at 10 min, 10 µM is listed for C[C@@H]1CN(c2ccc(C(F)(F)F)c3ncccc23)C[C@H](C(=O)N2CCC(N)CC2)O1 [Example 12] ?
Result: 7%

Request: Which inhibition at 10 min, 10 µM is listed for C[C@@H]1CN(c2ccc([N+](=O)[O-])c3ncccc23)C[C@H](C(=O)NC2CCN(C)CC2)O1 [Example 20] ?
Result: -12%

Request: Which inhibition at 10 min, 10 µM is listed for Cc1ccc(N2C[C@@H](C)O[C@@H](C(=O)NCC3CN(C)CCO3)C2)c2cccnc12 (stereo partly drawn) [Example 17] ?
Result: 3%

Request: Which inhibition at 10 min, 10 µM is listed for C[C@@H]1CN(c2ccc(C(F)(F)F)c3ncccc23)C[C@H](C(=O)N[C@@H]2CNC[C@@H]2F)O1 (single isomer, unassigned) [Example 2A] ?
Result: 9%

Request: Which inhibition at 10 min, 10 µM is listed for C[C@@H]1CN(c2ccc(C(F)(F)F)c3ncccc23)C[C@H](C(=O)NC[C@@H]2C[C@@H](F)CN2)O1 [Example 27] ?
Result: 6%

Request: Which inhibition at 10 min, 10 µM is listed for C[C@@H]1CN(c2ccc(I)c3ncccc23)C[C@H](C(=O)NCC2CN(C)CCO2)O1 (stereo partly drawn) [Example 39] ?
Result: 5%

Request: Which inhibition at 10 min, 10 µM is listed for C[C@@H]1CN(c2ccc(C(F)(F)F)c3ncccc23)C[C@H](C(=O)N2CCC3(CCNC3)C2)O1 (stereo partly drawn) [Example 36] ?
Result: -10%

Request: Which inhibition at 10 min, 10 µM is listed for C[C@@H]1CN(c2ccc(Br)c3ncccc23)C[C@H](C(=O)NC2CCN(C)CC2)O1 [Example 42] ?
Result: -3%

Request: Which inhibition at 10 min, 10 µM is listed for Cc1ccc(N2C[C@@H](C)O[C@@H](C(=O)NC3CCN(C)CC3)C2)c2cccnc12 [Example 16] ?
Result: 5%

Request: Which inhibition at 10 min, 10 µM is listed for C[C@@H]1CN(c2ccc(C(F)(F)F)c3ncccc23)C[C@H](C(=O)NC2C3CCC2CNC3)O1 (stereo partly drawn) [Example 31] ?
Result: 2%

Request: Which inhibition at 10 min, 10 µM is listed for C[C@@H]1CN(c2ccc(C(F)(F)F)c3ncccc23)C[C@H](C(=O)NC2CN(C)CC23CC3)O1 (stereo partly drawn) [Example 9] ?
Result: 6%
